Where do these numbers come from? They come from paper PMC8725537.

# Target Desc: FAAH-1 (Rattus norvegicus, UniProt P97612)
# Sequence (P97612 whole entry): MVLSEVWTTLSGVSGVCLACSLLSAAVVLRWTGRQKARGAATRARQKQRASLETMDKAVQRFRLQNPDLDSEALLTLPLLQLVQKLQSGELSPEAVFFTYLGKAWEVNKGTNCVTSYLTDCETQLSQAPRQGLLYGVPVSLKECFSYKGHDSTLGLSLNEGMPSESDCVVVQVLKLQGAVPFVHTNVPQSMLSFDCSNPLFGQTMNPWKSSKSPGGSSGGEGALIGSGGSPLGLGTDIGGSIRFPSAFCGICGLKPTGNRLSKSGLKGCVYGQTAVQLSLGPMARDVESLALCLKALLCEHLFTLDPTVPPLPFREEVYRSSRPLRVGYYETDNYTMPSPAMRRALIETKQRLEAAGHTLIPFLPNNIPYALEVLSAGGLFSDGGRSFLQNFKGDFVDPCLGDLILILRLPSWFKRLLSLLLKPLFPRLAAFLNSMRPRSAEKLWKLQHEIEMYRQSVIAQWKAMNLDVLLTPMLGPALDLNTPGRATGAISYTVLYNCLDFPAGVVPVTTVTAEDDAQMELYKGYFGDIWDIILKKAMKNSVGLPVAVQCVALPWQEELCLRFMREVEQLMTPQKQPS
pIC50: −log10 of the molar value.
Observed Property: pIC50

Recorded results for 3 compounds are shown here.
- Compound: "O=C(c1ccccc1)c1ccc2n1CCC2C(=O)O (stereo not shown) [Ketorolac]"
  pIC50: 2.91
- Compound: "CC1=C(CC(=O)O)c2cc(F)ccc2/C1=C\\c1ccc([S+](C)[O-])cc1 (stereo not shown) [Sulindac]"
  pIC50: 3.65
- Compound: "Cc1onc(-c2ccccc2)c1-c1ccc(S(N)(=O)=O)cc1 [Valdecoxib]"
  pIC50: 3.00

I = O=C(O)c1cc(-c2ccc(F)cc2F)ccc1O [Diflunisal]
II = Cc1ccc(Cl)c(Nc2ccccc2C(=O)O)c1Cl [Meclofenamic acid]
III = CC1=C(CC(=O)O)c2cc(F)ccc2/C1=C\c1ccc(S(C)(=O)=O)cc1 [Sulindac sulphone]
IV = O=C(O)Cc1ccccc1Nc1c(Cl)cccc1Cl [Diclofenac]
q: Given 4 compounds, produce a descending ranking by pIC50. Dear reader, please state the labels in the requested order.
a: II, III, I, IV
